Tested on: HOP-92 NSCLC
Test: NCI-60 one-dose screen, 48 h (100 = growth as untreated, 0 = no growth, -100 = all killed)
Conditions: 10 µM unless noted
Procedure: Growth inhibition of the HOP-92 human Non-Small Cell Lung tumor cell line is measured as a screen for anti-cancer activity. Cells are grown in 96 well plates and exposed to the test compound for 48 hours. Compounds are tested at a single concentration, which is 10^-5 M for most compounds. The reported endpoint is percent growth (GI% or GIPRCNT), where numbers from 0 - 100% represent growth inhibition, and numbers from -100% - 0 represent cell death. […]
About 83,000 compounds went through this panel and 20% of them were active in at least one assay; those are over-represented in the sample as a whole.
result_type: growth (%)

1. COc1ccc(-c2cn(-c3cc(OC)c(OC)c(OC)c3)c(=O)n2C(C)=O)cc1
94.2
2. CN(C)CCCn1c2c(c3ncccc3c1=O)C(=O)c1ccccc1-2
70.9
3. COc1cc(-c2nc(SCCC(C)C)nc(Nc3ccccc3Cl)c2C#N)cc(OC)c1OC
91
4. COc1cc2c(c(OC)c1OC)-c1ccc(OC)c(=O)cc1[C@@H](NC(=O)CCl)CC2
10
5. O=C1c2cccnc2C(=O)c2c1c(C(=O)NCCn1ccnc1)c1ccccn21
56.3
6. Cc1ccc(NC(=S)NNC(=S)NNc2ccccc2)cc1C
55.4
7. CC1=C(C(=O)OC(C)C)C(c2ccc3c(c2)OCO3)NC(=S)N1 (stereo not given)
96.6
8. C=C1CC[C@@H]2[C@](C)(COC(C)=O)[C@H](OC(C)=O)CC[C@@]2(C)[C@@H]1CC(Sc1ccccc1)C1=CCOC1=O (stereo not given in full)
24.5
9. O=C(Nn1c2c(sc1=NCc1ccccc1)C(=O)c1ccccc1C2=O)c1cc2ccc1CCc1ccc(cc1)CC2
127
10. CCNC(=O)c1[nH]cc(-c2ccccc2)c1-c1cc(OC)c2c(c1OC)OCO2
83.9

====

Let's look at some molecules and their measured growth.
System: IGROV1 ovarian
Experiment: NCI-60 one-dose screen, 48 h (100 = growth as untreated, 0 = no growth, -100 = all killed)
Details: 10 µM unless noted
About 83,000 compounds went through this panel and 20% of them were active in at least one assay; those are over-represented in the sample as a whole.
result_type: growth (%)

1) CC1=C(C(=O)OC(C)C)C(c2ccc3c(c2)OCO3)NC(=S)N1 (centres undefined)
99.9
2) Brc1c2c(c(Br)c3ccccc13)CCCC2
98.1
3) O=S(=O)(NCCNc1cc(-c2c(-c3cccc(O)c3)nc3sccn23)ccn1)c1ccc(C(F)(F)F)cc1
36.4
4) O=C(Cc1ccccc1)Nc1nc(O)c(/C=C2\C(=O)C=Cc3ccccc32)s1
102
5) CCCCN[C@H]1CC[C@@]2(C)[C@@H](CC[C@@]3(C)[C@H]2[C@H](O)C[C@H]2/C(=C(\CCC=C(C)C)C(=O)OC)[C@@H](OC(C)=O)C[C@@]23C)[C@@H]1C
99.2
6) Cn1ccc2c3c(ccc21)CC3=O
112
7) C=C1C(=O)O[C@H]2[C@H]1CC/C(COC(=O)NCc1cc[nH]c1)=C\CC[C@@]1(C)O[C@@H]21
15.5
8) COc1ccc(-c2nc3c(c(-c4ccccc4)nn3-c3ccccc3)c(-c3ccc(N4CCOCC4)cc3)c2C#N)cc1
109
9) Cc1cccc2c1NC(=O)C2(c1ccc(O)cc1)c1ccc(O)cc1
45.7
10) C=CCc1c(O)c(C(=O)/C=C/c2ccc(Cl)cc2)c(OC)c2ccoc12
43.3
11) C#CCn1cnc2c(Nc3cccc(NC(=O)C=C)c3)ncnc21
74.8
12) CN(C)CCCC1(c2ccc(F)cc2)OCc2cc(-c3cccc4[nH]ccc34)ccc21 (centres undefined)
20.2
13) CCCc1cc(NC)nc(S(=O)(=O)CC)n1
105
14) COc1ccc(-c2cn(-c3cc(OC)c(OC)c(OC)c3)c(=O)n2C(C)=O)cc1
77.7
15) CCN(CC)C(=S)SC(SC(=S)N(CC)CC)C(=O)c1nnn(-c2ccc([N+](=O)[O-])cc2)c1C
71.2
16) CC(C)c1ccc(COCc2cc(CN3CCCC3)c(O)c3ncccc23)cc1
9.42
17) C/C(=C(/c1ccc(Cl)cc1)c1ccc(OCCN2CCCC2)cc1)c1ccc(Cl)cc1
81.1
18) N#CC1C=CN(CC(N)=O)c2ccc3cccnc3c21 (centres undefined)
101
19) Cc1nn(-c2ccccc2)c(Oc2ccccn2)c1-c1nc2ccccc2s1
90.6
20) N#Cc1c(-c2cccs2)cc(-c2cccnc2)[nH]c1=O
108
21) O=c1oc2c(cnc3ccccc32)cc1-c1ccsc1
103
22) CC1(C)c2[nH]c3ccccc3c2C[C@]2(C)[C@H]3CC=C4[C@@H]5C[C@@](C)(C(N)=O)CC[C@]5(C)CC[C@@]4(C)[C@]3(C)CC[C@@H]12
74.4
23) COc1ccc(C(=O)Nc2ncc(Cc3cccc(Cl)c3)s2)cc1OC
40.2
24) CCN1CC(=O)N(/N=C2\C(=O)Nc3ccccc32)C1=S
55.3
25) C=C(CNCCc1ccc(O)cc1)[C@@H]1CC[C@]2(CO)CC[C@]3(C)[C@H](CC[C@@H]4[C@@]5(C)CCC(NCCO)C(C)(C)[C@@H]5CC[C@]43C)[C@@H]12 (some centres undefined)
-37.1
26) CCOC(=O)C(=Cc1cccc(Cl)c1)C(=O)OCC
9.1
27) OCCNCCCOc1ccc2ncnc(Nc3ccc(Oc4cccc(C(F)(F)F)c4)c(Cl)c3)c2c1
-35
28) Cc1ccc(-n2c(=S)[nH]c3sc4c(c3c2=O)CCC(=O)C4)cc1
48.9
29) O=C1NC(=O)c2c1c1c3ccccc3ccc1c1[nH]c3ccc(Br)cc3c21
14.4
30) COc1ccc2c(c1)[n+]([O-])c(C(=O)/C=C/C=C(\Cl)c1cc(OC)c(OC)c(OC)c1)c(C)[n+]2[O-]
64.6
31) COc1cc(CNC(=O)CCCC/C=C/C(C)C)ccc1OCc1nnc(Nc2ccc([N+](=O)[O-])cc2)o1
53.5
32) CCOC(=O)C(=Cc1cccc(Br)c1)C(=O)OCC
47.8
33) CN[C@]12CC3(C=CC(=O)C=C3)O[C@@]1(Cc1ccc(OC)cc1)N(C)C(=O)N2
-28.4
34) S=C1CCSC(=S)N1CCCN1C(=S)CCSC1=S
85.8
35) Cc1ccc(CNc2ccc(Cl)cc2NCc2ccc(C)c(O)c2)cc1O
24.2
36) CN1CCN(Cc2ccc3c(NNC(=O)c4ccccc4)nc4cc(F)ccc4n23)CC1
21.7
37) N#CC1CCc2c(c(-c3cn[nH]c3C(F)(F)F)nc3c(F)cc4[nH]ncc4c23)C1 (centres undefined)
-4.43
38) COC(=O)c1c2c(c(C)[n+]([O-])c1C)C(=O)C=C(NCc1ccc(Br)cc1)C2=O
-53.4
39) CCCCC(=O)Nc1ncc(Cc2ccc(Cl)cc2)s1
66.5

====

Test system: PC-3 prostate
Test: NCI-60 one-dose screen, 48 h
Conditions: 10 µM unless noted
The panel holds about 83,000 compounds, 20% with a hit somewhere; the sample as a whole holds those more often. Active and inactive are the calls of the source. Rule for the calls: active = growth percent below 10; inactive = the rest.
Outcomes: YES (active), NO (inactive)

1) CCC(C)N(c1ccc(Cl)cc1)c1nc(-c2ccc(Br)cc2)cs1 (stereo not given)
NO
2) C#CCOc1cccc(Nc2ncnc3c(NC(=O)C=C)cccc23)c1
NO
3) COc1cc(CNC(=O)CCCC/C=C/C(C)C)ccc1OCc1nnc(Nc2ccc([N+](=O)[O-])cc2)o1
NO
4) Oc1c(Cl)cc(Cl)c2ccc(Cn3cc(-c4cc(F)cc(F)c4)nn3)nc12
NO
5) CNC(=O)c1c(NC(=O)c2ccc(C(F)(F)F)cc2)sc2c1CCC(=O)C2
YES
6) COc1cc2c(c(OC)c1OC)CCC(c1cccc(C(=O)Nc3cccc(Br)c3)c1)O2 (stereo not given)
NO
7) CC(=O)c1cc(O)c2ccccc2c1O
NO
8) O=C(Cc1ccccc1)Nc1nc(O)c(/C=C2\C(=O)C=Cc3ccccc32)s1
NO
9) CS(=O)(=O)c1cccc(-c2c(-c3cccc(OS(N)(=O)=O)c3)nc3sccn23)c1
NO
10) COCCn1c(-c2csc(-c3cn(C)c4ccc(OC)cc34)n2)cc2cccnc21
NO

====

Let's look at some molecules and their measured growth.
Tested on: HT29 colon
Test: NCI-60 one-dose screen, 48 h (100 = growth as untreated, 0 = no growth, -100 = all killed)
Conditions: 10 µM unless noted
Compounds without any hit were thinned out: in the full panel of roughly 83,000, 20% have a hit. The source made the active and inactive calls. How the source made its calls: active means growth percent below 10; inactive means the rest.
result_type: growth

1) O=S(=O)(Nc1ccc(Cl)cc1)c1ccc(-c2cnc(C3CC3)o2)cc1
15.4% (inactive)
2) CCOC(=O)c1cc(C(=O)c2cc(OC)c(OC)c(OC)c2)n2ccc(-c3ccncc3)cc12
91.5% (inactive)
3) COC(=O)c1c2c(c(C)[n+]([O-])c1C)C(=O)C(NCc1ccc(Cl)cc1)=CC2=O
9.34% (active)
4) CC(=O)c1cc(O)c2ccccc2c1O
111% (inactive)
5) C#Cc1cccc(Nc2ncnc3ccc(-c4cncc(NS(C)(=O)=O)c4)cc23)c1
20.7% (inactive)
6) CN1C(=O)N(C)C2Nn3c(s/c(=C\c4ccc(C(F)(F)F)cc4)c3=O)=NC21 (centres undefined)
109% (inactive)
7) COC(=O)[C@H]1CCCN1C[C@@H](O)CN1C(=O)/C(=C\c2cc(OC)c(OC)c(OC)c2)c2ccccc21
110% (inactive)
8) COc1cnc2c(c1)C(=O)c1c-2n(CCCNCCO)c(=O)c2ccncc12
3.25% (active)
9) COC(=O)c1cc(-c2ccccc2)[nH]c1N/N=C/c1c(Cl)cccc1Cl
-8.44% (active)
10) CC(C)(C)n1cc(-c2ccnc(NCCNS(=O)(=O)c3cccc(F)c3)c2)c(-c2ccccc2)n1
41.4% (inactive)
11) CCOC(=O)C1=NN(c2ccccc2)C(=O)/C1=C\N1C(=O)CC(=O)NC1=S
99.7% (inactive)
12) O=C(Cn1c2c(c3ccccc31)CCCC2)Nc1ccc(-c2nc3ccccc3s2)cc1
107% (inactive)
13) CC1(C)CC2=C3C=C[C@@H]4[C@@]5(C)CCC(=O)C(C)(C)[C@@H]5CC[C@@]4(C)[C@]3(C)CC[C@@]2(C(=O)O)CC1=O
50.4% (inactive)
14) Cc1ccc(/C=N/Nc2nc(Nc3ccccc3)nc(-n3nc(C)cc3C)n2)cc1
32.7% (inactive)
15) Oc1ccc(CCn2c(O)c(/C=C3\CN=c4ccccc4=N3)sc2=S)cc1
62% (inactive)
16) CC(=O)[C@@H]1CCC=C2CC[C@]3(C)[C@@H](CC[C@@H]4[C@@]5(C)CCCNC(C)(C)[C@@H]5CC[C@]43C)[C@H]21
-83.7% (active)
17) CCOc1ccc(NC(=O)CSc2oc(-c3ccccc3)nc2S(=O)(=O)c2ccc(F)cc2)cc1
73.7% (inactive)
18) C#COc1cccc(Nc2ncnc3ncc(NC(=O)CCl)cc23)c1
-65.2% [6.25 µM] (active)
19) C=CCn1c(SCC(=O)Nc2ccc(C(=O)/C=C/c3ccc(Cl)cc3)cc2)nnc1-c1cc(-c2ccc(S(N)(=O)=O)cc2)nc2ccccc12
97.4% (inactive)

Cited source: PubChem BioAssay (NCI)
